Listing: apparent KD of MS2 coat protein of selected sequences
- System: MS2 coat protein
- ASSAY PROTOCOL: apparent KD of MS2 coat protein; designed switch direction (-1 OFF switch, 1 ON switch): -1; higher = weaker reporter binding
- ASSAY CONTEXT: input ligand: FMN 200 uM
Express it in nM; write the number only.

Illustrative cases are given below, each with its answer.
{"RESIDUES": "CUUUUGUGAGGAUAUUAGUAGUUUAUAAUUGGUGUUAUUGCUGAGAAGGCACAUGAGGAUCACCCAUGUACAAC [JR_Ex4_Sub033] (Eterna round: R97, puzzle: Exclusion 4)", "REPORTED VALUE": 97.9}
{"RESIDUES": "GGCGCCUCAGGAUAUCAGUCUGGAUCAGAAUAGAUCCUGACUGAGAAGGGACAUGAGGAUCACCCAUGUUCGCC [Eli 4x 4.29] (Eterna round: R97, puzzle: Exclusion 4)", "REPORTED VALUE": 20.8}

Suppose we examine the sequence AGUCAGGCGGUAGGAUAUCCAAACCGAGUGACCCUUACAUAACAUGAGGAUCACCCAUGUCGGUGGGAGAAGGGCCGUAAGGCA [Mat - Exclusion NG 2 - Mod of JL - D67] (Eterna round: R96, puzzle: Exclusion NG 2) ; what apparent KD of MS2 coat protein value has been reported?
517

Suppose we examine the sequence CCGGCUGCUGUGAGGAUAUGCCUGUGGGUGCGUGGGUAGAAGGCACAUGAGGAUCACCCAUGUCCUGCGGUCCC [salish99_bmx4_r4_113] (Eterna round: R97, puzzle: Brourd's mod of Exclusion 4) ; what apparent KD of MS2 coat protein value has been reported?
63.9

Suppose we examine the sequence CGGAUGUAAGGAUAUCGUGCAAGUUUCAAAAGAGGCUUGUGCGAGAAGGUACAUGAGGAUCACCCAUGUAGGUU [Omei Ex4 B6] (Eterna round: R97, puzzle: Exclusion 4) ; what apparent KD of MS2 coat protein value has been reported?
157

The measurements presented in this section are drawn from the supplement of paper PMC9170038.
